tested on: HUVEC cell line
outcome-measure: CC50
Could you kindly put the unit after your number?

For HUVEC cell line, provide CC50 of CCCCCCCCCCCCCC(=O)O[C@@H]1[C@@H](C)[C@@]2(O)[C@@H](C=C(CO)C[C@]3(O)C(=O)C(C)=C[C@@H]23)[C@@H]2C(C)(C)[C@]12OC(C)=O [PMA, Phorbol 12-myristate 13-acetate, reference compound] please.
272 µg/mL

Ref: patent US11246922B1
